- testSummary: Agonist activity at ferret D4 receptor in HEK293 cells coexpressing G-alpha-qo5 by FLIPR
- Format: functional, cell-based, Mustela putorius furo
- particulars: Mustela putorius
reportedProperty: EC50

>>> print(df.to_string())
                            structuresmiles  result
0                         NCCc1ccc(O)c(O)c1  2.7 nM
1  Cc1cccc(C(=O)NCN2CCC(c3cccc[n+]3[O-])CC2)c1  160 nM
2    Oc1ccc(N2CCN(Cc3nc4ccccc4[nH]3)CC2)nc1    5 nM
3     CN1CCc2cccc3c2[C@H]1Cc1ccc(O)c(O)c1-3  1.5 nM

###

- testSummary: Cmax in rat at 1 mg/kg, sc
- Assay type: ADME, organism-based
- Set-up: dose 1 mg/kg, route subcutaneous
- particulars: in vivo
reportedProperty: Cmax

                            structuresmiles     result
0  Cc1cccc(C(=O)NCN2CCC(c3cccc[n+]3[O-])CC2)c1  465 ng/mL

###

- testSummary: Half life in monkey at 1 mg/kg, po
- Type: ADME, organism-based, Macaca mulatta
- Design: dose 1 mg/kg, route oral
- particulars: rhesus monkey, in vivo
reportedProperty: half-life

>>> df
                            structuresmiles  result
0  Cc1cccc(C(=O)NCN2CCC(c3cccc[n+]3[O-])CC2)c1     2 h

###

- testSummary: Half life in dog at 1 mg/kg, po
- Format: ADME, organism-based, Canis lupus familiaris
- Parameters: dose 1 mg/kg, route oral
- particulars: in vivo
reportedProperty: half-life (min)

>>> df
                            structuresmiles  unitabbreviation  numericresult
0  Cc1cccc(C(=O)NCN2CCC(c3cccc[n+]3[O-])CC2)c1               min            126

###

- testSummary: Oral bioavailability in monkey
- Assay type: ADME, organism-based, Macaca mulatta
- particulars: rhesus monkey, in vivo
reportedProperty: bioavailability (%)

                            structuresmiles  numericresult
0  Cc1cccc(NC(=O)CN2CCC(c3cccc[n+]3[O-])CC2)c1             28

###

- studySystem: hERG (Homo sapiens)
- Sequence (Q12809 whole entry): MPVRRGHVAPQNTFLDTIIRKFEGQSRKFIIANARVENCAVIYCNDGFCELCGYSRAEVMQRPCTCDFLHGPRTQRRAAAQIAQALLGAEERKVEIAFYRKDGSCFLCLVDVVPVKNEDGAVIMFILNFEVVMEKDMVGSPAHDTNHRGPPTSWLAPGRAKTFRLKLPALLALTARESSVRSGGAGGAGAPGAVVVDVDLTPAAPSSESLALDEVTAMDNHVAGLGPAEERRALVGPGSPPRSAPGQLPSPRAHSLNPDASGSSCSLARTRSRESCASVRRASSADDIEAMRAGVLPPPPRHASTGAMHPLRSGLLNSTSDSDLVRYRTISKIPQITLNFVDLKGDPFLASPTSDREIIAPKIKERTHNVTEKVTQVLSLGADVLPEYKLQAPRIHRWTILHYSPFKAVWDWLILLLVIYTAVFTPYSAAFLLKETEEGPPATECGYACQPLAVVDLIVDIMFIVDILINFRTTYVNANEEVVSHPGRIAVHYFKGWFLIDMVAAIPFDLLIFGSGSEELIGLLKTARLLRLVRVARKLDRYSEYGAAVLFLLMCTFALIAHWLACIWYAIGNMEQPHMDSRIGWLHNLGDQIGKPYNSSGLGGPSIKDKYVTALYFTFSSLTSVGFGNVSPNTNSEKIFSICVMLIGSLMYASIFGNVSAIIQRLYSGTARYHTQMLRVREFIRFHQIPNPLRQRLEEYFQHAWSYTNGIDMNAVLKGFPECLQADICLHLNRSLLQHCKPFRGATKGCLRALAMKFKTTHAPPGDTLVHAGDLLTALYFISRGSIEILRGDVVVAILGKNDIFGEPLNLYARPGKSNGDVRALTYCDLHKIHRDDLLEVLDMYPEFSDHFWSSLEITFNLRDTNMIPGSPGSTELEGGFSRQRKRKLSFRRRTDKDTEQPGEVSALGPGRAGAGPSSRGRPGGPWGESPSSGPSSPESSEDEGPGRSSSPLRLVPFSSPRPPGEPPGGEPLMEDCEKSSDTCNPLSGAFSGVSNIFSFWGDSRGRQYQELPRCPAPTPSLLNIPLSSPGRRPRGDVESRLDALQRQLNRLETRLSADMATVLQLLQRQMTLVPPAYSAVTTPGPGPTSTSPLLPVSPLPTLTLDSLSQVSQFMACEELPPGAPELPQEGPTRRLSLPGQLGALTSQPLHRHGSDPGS
- testSummary: Blockade of current at hERG expressed in HEK293 cells at 1 ug/mL
- Format: cell-based
- particulars: HEK293 cells that express hERG
reportedProperty: inhibition at 1 ug/mL

                            structuresmiles       reportedproperty  result
0  Cc1cccc(C(=O)NCN2CCC(c3cccc[n+]3[O-])CC2)c1  inhibition at 1 ug/mL   14.4%

###

- testSummary: Bioavailability in rat at 1 mg/kg, po
- Format: ADME, organism-based
- particulars: in vivo
reportedProperty: bioavailability (%)

>>> print(df.to_string())
                            structuresmiles  numericresult
0  Cc1cccc(C(=O)NCN2CCC(c3cccc[n+]3[O-])CC2)c1             68

###

- studySystem: D(4) dopamine receptor (Homo sapiens, UniProt P21917)
- Sequence (P21917 whole entry): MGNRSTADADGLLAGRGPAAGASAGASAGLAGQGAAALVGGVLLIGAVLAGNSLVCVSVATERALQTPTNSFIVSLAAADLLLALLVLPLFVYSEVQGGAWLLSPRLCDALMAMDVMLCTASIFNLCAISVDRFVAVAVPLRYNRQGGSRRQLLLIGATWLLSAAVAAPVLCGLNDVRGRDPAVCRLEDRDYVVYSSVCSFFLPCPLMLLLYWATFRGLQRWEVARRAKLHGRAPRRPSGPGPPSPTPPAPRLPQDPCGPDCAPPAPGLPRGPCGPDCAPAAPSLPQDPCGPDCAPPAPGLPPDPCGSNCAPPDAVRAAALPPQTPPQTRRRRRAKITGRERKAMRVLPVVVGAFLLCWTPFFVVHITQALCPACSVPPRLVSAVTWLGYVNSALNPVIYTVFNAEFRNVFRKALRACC
- testSummary: Displacement of [3H]A369508 from human D4 receptor expressed in HEK293 cell membrane
- Assay type: cell membranes
reportedProperty: log10 of Ki (log10 of the value in nM)

>>> df
                            structuresmiles                               studysystem  numericresult
0  Cc1cc(F)ccc1NC(=O)CN1CCC(c2cccc[n+]2[O-])CC1  D(4) dopamine receptor (Homo sapiens, UniProt P21917)           2.61
1    COc1ccccc1C1CCN(CNC(=O)c2cccc(C)c2)CC1  D(4) dopamine receptor (Homo sapiens, UniProt P21917)           0.11
2    Oc1ccc(N2CCN(Cc3nc4ccccc4[nH]3)CC2)nc1  D(4) dopamine receptor (Homo sapiens, UniProt P21917)           1.23
3  Cc1cccc(NC(=O)CN2CCC(c3cccc[n+]3[O-])CC2)c1  D(4) dopamine receptor (Homo sapiens, UniProt P21917)           2.47
4  Cc1cccc(C(=O)NCN2CCC(c3cccc[n+]3[O-])CC2)c1  D(4) dopamine receptor (Homo sapiens, UniProt P21917)           3.16
5      Cc1cccc(NC(=O)CN2CCC(c3ccccn3)CC2)c1  D(4) dopamine receptor (Homo sapiens, UniProt P21917)           0.90
